Target: Estrogen receptor (Mus musculus) (UniProt O08537+P19785)
Sequence (O08537 whole entry, looked up): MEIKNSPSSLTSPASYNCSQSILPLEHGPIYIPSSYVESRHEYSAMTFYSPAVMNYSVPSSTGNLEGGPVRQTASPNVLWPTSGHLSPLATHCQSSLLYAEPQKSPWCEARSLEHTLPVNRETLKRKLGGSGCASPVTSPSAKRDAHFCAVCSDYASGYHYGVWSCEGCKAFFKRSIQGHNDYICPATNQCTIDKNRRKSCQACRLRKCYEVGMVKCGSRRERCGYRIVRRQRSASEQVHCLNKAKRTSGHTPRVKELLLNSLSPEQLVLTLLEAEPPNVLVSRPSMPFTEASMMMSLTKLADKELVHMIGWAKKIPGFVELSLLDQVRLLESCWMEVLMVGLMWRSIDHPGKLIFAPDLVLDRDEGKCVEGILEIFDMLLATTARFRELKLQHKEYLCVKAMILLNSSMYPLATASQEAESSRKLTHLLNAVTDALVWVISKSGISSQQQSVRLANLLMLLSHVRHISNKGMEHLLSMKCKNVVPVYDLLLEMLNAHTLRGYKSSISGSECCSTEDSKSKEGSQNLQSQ
Sequence (P19785 whole entry, looked up): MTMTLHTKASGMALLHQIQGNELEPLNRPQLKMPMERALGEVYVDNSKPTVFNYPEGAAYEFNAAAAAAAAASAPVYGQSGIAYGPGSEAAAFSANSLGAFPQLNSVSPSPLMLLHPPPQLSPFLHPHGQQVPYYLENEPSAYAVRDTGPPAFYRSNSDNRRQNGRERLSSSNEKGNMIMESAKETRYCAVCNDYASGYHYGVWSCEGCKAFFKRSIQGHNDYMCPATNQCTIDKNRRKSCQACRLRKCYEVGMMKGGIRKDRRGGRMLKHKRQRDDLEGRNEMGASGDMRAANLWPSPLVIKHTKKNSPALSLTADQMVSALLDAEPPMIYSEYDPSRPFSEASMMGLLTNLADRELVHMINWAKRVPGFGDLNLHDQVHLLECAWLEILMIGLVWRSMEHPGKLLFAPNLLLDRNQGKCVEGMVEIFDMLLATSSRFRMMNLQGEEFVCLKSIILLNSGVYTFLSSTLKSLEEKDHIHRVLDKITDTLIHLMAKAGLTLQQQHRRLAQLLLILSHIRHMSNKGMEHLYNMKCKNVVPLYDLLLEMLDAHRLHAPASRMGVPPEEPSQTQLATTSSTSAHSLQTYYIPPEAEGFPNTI
Assay: Inhibition of estradiol-induced uterine weight gain in ovariectomized BALB/c mice at 3 ug dose twice daily
Assay type: functional
Quantity Name: inhibition (%)

Below, 4 molecules whose answers are already recorded.
Compound: CCCCN(C)C(=O)CCCCCCCCCC[C@@H]1Cc2cc(O)ccc2[C@H]2CC[C@]3(C)[C@@H](O)[C@H](I)C[C@H]3[C@H]12
inhibition / %: 63

Compound: CCCCN(C)C(=O)CCCCCCCCCC[C@@H]1Cc2cc(O)ccc2[C@H]2CC[C@]3(C)[C@@H](O)[C@H](Cl)C[C@H]3[C@H]12
inhibition / %: 74

Compound: CCCCN(C)C(=O)CCCCCCCCCC[C@@H]1Cc2cc(O)ccc2[C@H]2CC[C@]3(C)[C@H](O)[C@H](Br)C[C@H]3[C@H]12
inhibition / %: 60

Compound: CCCCN(C)C(=O)CCCCCCCCCC[C@@H]1Cc2cc(O)ccc2[C@H]2CC[C@]3(C)[C@@H](O)CC[C@H]3[C@H]12
inhibition / %: 40

[I] CCCCN(C)C(=O)CCCCCCCCCC[C@@H]1Cc2cc(O)ccc2[C@H]2CC[C@]3(C)[C@@H](O)[C@H](Br)C[C@H]3[C@H]12
[II] CCCCN(C)C(=O)CCCCCCCCCC[C@@H]1Cc2cc(O)ccc2[C@H]2CC[C@]3(C)[C@H](O)[C@H](Cl)C[C@H]3[C@H]12
Between the two listed entries I and II , which has its inhibition at the higher number? Bench note: the answer is the label of the chosen record.
I
